# subject_of_test: D(3) dopamine receptor (Homo sapiens)
# test_protocol: Inhibition of D3 dopamine receptor at 10 uM
Reported inhibition by item:

CCOc1ccc(-c2nn3c(C)cc(C)nc3c2CC(=O)N(CC)CC)cc1 = < 50%
CCCOc1ccc(-c2nn3c(C)cc(C)nc3c2CC(=O)N(CC)CC)cc1 = < 50%
CCCCOc1ccc(-c2nn3c(C)cc(C)nc3c2CC(=O)N(CC)CC)cc1 = < 50%

Read the next record carefully.
Look up inhibition for this molecule: C#CCOc1ccc(-c2nn3c(C)cc(C)nc3c2CC(=O)N(CC)CC)cc1 < 50%

====

# subject_of_test: Kappa-type opioid receptor (Homo sapiens)
# Sequence (P41145 whole entry): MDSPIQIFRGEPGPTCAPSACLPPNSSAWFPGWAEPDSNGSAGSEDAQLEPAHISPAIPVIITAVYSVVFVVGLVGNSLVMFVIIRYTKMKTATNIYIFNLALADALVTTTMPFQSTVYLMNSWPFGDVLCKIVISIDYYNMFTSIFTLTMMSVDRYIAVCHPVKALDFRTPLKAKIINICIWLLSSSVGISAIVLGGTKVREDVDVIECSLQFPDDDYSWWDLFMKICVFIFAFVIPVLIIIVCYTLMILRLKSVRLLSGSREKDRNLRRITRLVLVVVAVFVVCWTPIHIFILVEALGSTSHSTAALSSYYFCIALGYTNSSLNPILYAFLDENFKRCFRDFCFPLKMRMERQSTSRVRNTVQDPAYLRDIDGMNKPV
pKi: −log10 of the molar value.
measure_name: pKi

// lookup pKi for CCCOc1ccc(-c2nn3c(C)cc(C)nc3c2CC(=O)N(CC)CC)cc1 < 5.00

====

# subject_of_test: 5-hydroxytryptamine receptor 2B (Homo sapiens)
# Sequence (P41595 whole entry): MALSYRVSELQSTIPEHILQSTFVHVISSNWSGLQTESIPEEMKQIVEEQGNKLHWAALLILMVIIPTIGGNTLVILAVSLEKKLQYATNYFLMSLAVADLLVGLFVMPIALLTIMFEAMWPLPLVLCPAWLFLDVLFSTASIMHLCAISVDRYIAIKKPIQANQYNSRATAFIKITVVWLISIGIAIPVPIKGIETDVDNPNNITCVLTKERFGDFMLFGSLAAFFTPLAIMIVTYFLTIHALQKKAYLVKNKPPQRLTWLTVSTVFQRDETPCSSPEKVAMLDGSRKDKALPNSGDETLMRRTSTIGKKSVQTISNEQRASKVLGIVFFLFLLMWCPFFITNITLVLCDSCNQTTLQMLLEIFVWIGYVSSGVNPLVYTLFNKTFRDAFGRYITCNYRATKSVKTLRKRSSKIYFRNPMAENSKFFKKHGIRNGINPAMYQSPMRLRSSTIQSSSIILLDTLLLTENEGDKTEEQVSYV
measure_name: Ki (µM)
Kindly answer with a numeric value in µM, unit omitted.

Which Ki reading was recorded for the compound CCCCOc1ccc(-c2nn3c(C)cc(C)nc3c2CC(=O)N(CC)CC)cc1 ? 8.36

====

# subject_of_test: 5-hydroxytryptamine receptor 2A (Homo sapiens) (UniProt P28223)
# Sequence (P28223 whole entry): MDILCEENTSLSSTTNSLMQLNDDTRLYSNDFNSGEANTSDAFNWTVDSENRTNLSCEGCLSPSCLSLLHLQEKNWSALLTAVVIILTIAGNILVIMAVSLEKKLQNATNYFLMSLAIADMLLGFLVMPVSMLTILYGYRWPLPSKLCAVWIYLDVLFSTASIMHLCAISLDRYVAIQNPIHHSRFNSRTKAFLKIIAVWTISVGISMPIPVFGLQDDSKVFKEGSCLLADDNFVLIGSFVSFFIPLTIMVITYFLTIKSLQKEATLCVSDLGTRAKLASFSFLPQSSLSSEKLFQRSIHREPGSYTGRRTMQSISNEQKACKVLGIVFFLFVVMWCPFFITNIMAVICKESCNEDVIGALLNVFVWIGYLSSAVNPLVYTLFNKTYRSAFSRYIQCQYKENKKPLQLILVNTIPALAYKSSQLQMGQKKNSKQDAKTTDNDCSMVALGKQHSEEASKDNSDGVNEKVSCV
# test_protocol: Inhibition of 5-HT2A receptor at 10 uM
measure_name: inhibition

Worked examples follow.
C#CCOc1ccc(-c2nn3c(C)cc(C)nc3c2CC(=O)N(CC)CC)cc1 = < 50%
CCCCOc1ccc(-c2nn3c(C)cc(C)nc3c2CC(=O)N(CC)CC)cc1 = < 50%
CCCOc1ccc(-c2nn3c(C)cc(C)nc3c2CC(=O)N(CC)CC)cc1 = < 50%

Then there is this compound:
Entry under review: CCOc1ccc(-c2nn3c(C)cc(C)nc3c2CC(=O)N(CC)CC)cc1 . Reported inhibition? < 50%

====

Quick reference: inhibition of the listed items.
# subject_of_test: 5-hydroxytryptamine receptor 5A (Homo sapiens)
# test_protocol: Inhibition of 5-HT5A receptor at 10 uM

Known inhibition results, listed for orientation:
C#CCOc1ccc(-c2nn3c(C)cc(C)nc3c2CC(=O)N(CC)CC)cc1 = < 50%
CCOc1ccc(-c2nn3c(C)cc(C)nc3c2CC(=O)N(CC)CC)cc1 = < 50%

Param readout= inhibition; system= 5-hydroxytryptamine receptor 5A (Homo sapiens); entry= CCCOc1ccc(-c2nn3c(C)cc(C)nc3c2CC(=O)N(CC)CC)cc1 ; returns value. < 50%

Lab request: please report inhibition under test system 5-hydroxytryptamine receptor 5A (Homo sapiens) for CCCCOc1ccc(-c2nn3c(C)cc(C)nc3c2CC(=O)N(CC)CC)cc1 < 50%

====

# subject_of_test: Alpha-1B adrenergic receptor (Homo sapiens, UniProt P35368)
# Sequence (P35368 whole entry): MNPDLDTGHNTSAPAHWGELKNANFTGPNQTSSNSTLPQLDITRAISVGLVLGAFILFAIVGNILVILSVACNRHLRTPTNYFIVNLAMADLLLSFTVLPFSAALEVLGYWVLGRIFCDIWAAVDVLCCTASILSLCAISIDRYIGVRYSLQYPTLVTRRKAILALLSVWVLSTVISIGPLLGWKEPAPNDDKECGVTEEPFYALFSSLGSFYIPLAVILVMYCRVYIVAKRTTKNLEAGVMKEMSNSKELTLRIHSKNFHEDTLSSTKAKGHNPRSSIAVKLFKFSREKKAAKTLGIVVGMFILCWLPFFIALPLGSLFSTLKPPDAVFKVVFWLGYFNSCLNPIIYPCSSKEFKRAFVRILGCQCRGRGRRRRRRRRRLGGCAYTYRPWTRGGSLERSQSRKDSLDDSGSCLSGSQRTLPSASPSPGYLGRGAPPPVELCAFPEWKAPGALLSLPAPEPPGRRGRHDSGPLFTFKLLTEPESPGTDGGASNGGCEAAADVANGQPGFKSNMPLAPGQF
pKi: −log10 of the molar value.
measure_name: pKi

Look up pKi: CCCOc1ccc(-c2nn3c(C)cc(C)nc3c2CC(=O)N(CC)CC)cc1 < 5.00

====

# subject_of_test: D(1A) dopamine receptor (Homo sapiens)
# test_protocol: Inhibition of D1 dopamine receptor at 10 uM
measure_name: inhibition

Query: inhibition; subject: CCCOc1ccc(-c2nn3c(C)cc(C)nc3c2CC(=O)N(CC)CC)cc1 < 50%

====

The following compounds are shown together with reported pKi values.
# subject_of_test: 5-hydroxytryptamine receptor 1B (Homo sapiens)
# Sequence (P28222 whole entry): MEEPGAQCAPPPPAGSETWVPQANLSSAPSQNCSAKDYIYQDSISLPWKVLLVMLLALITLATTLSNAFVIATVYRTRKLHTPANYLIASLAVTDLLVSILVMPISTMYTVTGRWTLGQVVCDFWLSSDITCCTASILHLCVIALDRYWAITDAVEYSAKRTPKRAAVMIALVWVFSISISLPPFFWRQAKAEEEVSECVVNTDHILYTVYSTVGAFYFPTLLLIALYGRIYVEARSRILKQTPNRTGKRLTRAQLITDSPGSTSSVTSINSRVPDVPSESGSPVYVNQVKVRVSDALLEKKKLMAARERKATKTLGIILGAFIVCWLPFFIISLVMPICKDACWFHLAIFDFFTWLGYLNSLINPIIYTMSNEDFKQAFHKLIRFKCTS
# test_protocol: Inhibition of 5-HT1B receptor
pKi: −log10 of the molar value.

CCCOc1ccc(-c2nn3c(C)cc(C)nc3c2CC(=O)N(CC)CC)cc1 = < 5.00

Please find the next compound below.
Which measured pKi value corresponds to C#CCOc1ccc(-c2nn3c(C)cc(C)nc3c2CC(=O)N(CC)CC)cc1 ? < 5.00
